test: qHTS to identify inhibitors of the type 1 interferon - major histocompatibility complex class I in skeletal muscle: primary screen against the NCATS Pharmaceutical Collection (AID 1347407); details: human skeletal muscle cells, IFN-b-induced MHC-I HiBiT luminescence, 24 h; series mostly up to 45.9 µM;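 also: luminescence of HiBiT knocked into endogenous HLA-B as interferon-induced MHC class I level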
Inconclusive results are not listed. Active and inactive are the calls of the source. Calls follow the shape of the dose curve; as a rule, active = well fitted inhibition curve with a large enough effect; inconclusive = small, poorly fitted or top-dose-only effect; inactive = flat fitted curve, though single readings scatter.
Parameter call: string, one of active, inactive

Sample answers from the record:
COMPOUND	CLASSIFICATION
C#CCOC(C(=O)OCCN(C)C)(c1ccccc1)c1ccccc1	inactive
Nc1ccncc1	inactive
Clc1ccc(CCC(Cn2ccnc2)Sc2c(Cl)cccc2Cl)cc1 (configuration not stated)	inactive
C[C@]12CC[C@H]3[C@@H](CCC4=CC(=O)CC[C@@H]43)[C@@H]1CC[C@@H]2OC(=O)CCc1ccccc1	inactive
COc1ccc2c(c1OC)CN1CCc3cc4c(cc3C1C2)OCO4 (configuration not stated)	inactive

## Input Please share the test call associated with `CC(=O)[C@H]1CC[C@H]2[C@@H]3CC[C@H]4C[C@](C)(O)CC[C@]4(C)[C@H]3CC[C@]12C` .
## Output inactive

## Input Please share the test call associated with `Oc1cc(Cl)ccc1Oc1ccc(Cl)cc1Cl` .
## Output inactive

----------
experiment: Quantitative High-Throughput drug screen in 47 multiple myeloma cell lines against the NCATS MIPE library collection: OPM2_DSMZ cell viability assay (AID 1919872); settings: OPM2 myeloma viability, CellTiter-Glo ATP luminescence, 48 h; series mostly up to 45.8 µM; also: nearly all actives have a fitted effect of over 30% in size
Records with an inconclusive call do not appear. Active and inactive are the calls of the source. Calls come from the whole dose curve; as a rule, active = well fitted cell-killing curve with a large enough effect; inconclusive = small, poorly fitted or top-dose-only effect, or effect the other way; inactive = no such curve, though single readings can be large or run the other way.
Parameter call: string, one of active, inactive

Sample answers from the record:
> print(dat)
                                   molecule  classification
1         COC[C@@H](NC(C)=O)C(=O)NCc1ccccc1        inactive
2     N[C@@H](Cc1ccc(N(CCCl)CCCl)cc1)C(=O)O          active
3  O=c1[nH]c2ccccc2n1CCCN1CCC(n2c(=O)[nH]c3cc(Cl)ccc32)CC1        inactive
4                       NCC1(CC(=O)O)CCCCC1        inactive
5  O=P1(NCCCl)OCCCN1CCCl (stereo not given)        inactive

Shift focus to the following entry.
## Input Please share the test call associated with `Cc1cccc(C)c1NC(=O)CN1CCCC1=O` .
## Output inactive

----------
test: qHTS for differential inhibitors of proliferation of Plasmodium falciparum line W2 (AID 1883); conditions: Plasmodium falciparum W2 proliferation inhibition; series mostly up to 28.7 µM;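 also: parasites grown with compound for 72 h before lysis and staining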
Inconclusive results are not listed. Calls of active or inactive are those of the source. Calls come from the whole dose curve; as a rule, active = well fitted curve in the direction sought with a large enough effect; inconclusive = small, poorly fitted or top-dose-only effect, or another doubt; inactive = no such curve, though single readings can be large or run the other way.
Parameter call: string, one of active, inactive

Sample answers from the record:
> print(dat)
                                   molecule  classification
1                    Cc1cccc(C)c1NC1=NCCCS1          active
2      NCC(O)c1ccc(O)cc1 (stereo not drawn)        inactive
3  Cc1nc2n(c(=O)c1CCN1CCC(c3noc4cc(F)ccc34)CC1)CCCC2          active
4               c1ccc(C2CC2)c(OCC2=NCCN2)c1          active

Shift focus to the following entry.
## Input Please share the test call associated with CNCC(O)c1ccc(O)cc1 (stereo not drawn) .
## Output inactive
